Test system: HCT116
Assay: efficacy (fitted maximal change in viability relative to DMSO control); higher = less cytotoxic (negative = loss of viability)
Conditions: 48 h
Counter-ions that a name gives are not always drawn.
The label depends only on efficacy: fulfilled if it is at least -30%, not fulfilled if it is smaller.

Field: example entries. Status: answers known.
[
  {
    "COMPOUND": "COC1=CC2=C(C=C1OCCCN3CCCC3)\\N=C(N)/C24CCC4",
    "LABEL": "fulfilled"
  },
  {
    "COMPOUND": "C=C1[C@H](OC(=O)/C=C(\\C)CC)C[C@@H](C(C)C)[C@@H]2[C@H]([C@@H](C)OC(C)=O)C(=O)C[C@@H]12",
    "LABEL": "not fulfilled"
  },
  {
    "COMPOUND": "Cc1noc(C)c1-c1ccc(-c2cc(C(N)=O)c(NC(N)=O)s2)c(O[C@H]2CCNC2)c1",
    "LABEL": "not fulfilled"
  },
  {
    "COMPOUND": "CCCCNc1ncc(-c2ccc(CN3CCOCC3)cn2)c(N[C@H]2CC[C@H](O)CC2)n1",
    "LABEL": "not fulfilled"
  },
  {
    "COMPOUND": "NC\\1=N\\C(=O)N(\\C=C1)[C@H]\\2[C@H](O)[C@H](O)C(=C2F)\\CO",
    "LABEL": "not fulfilled"
  }
]

# input Would you say CC(C)(C)c1cc(C(=O)O)c(NC(=O)Nc2ccc3[nH]ncc3c2)s1 shows efficacy at minimum -30%?
# output fulfilled

# input Would you say CC(=O)N(O)CCCCCNC(=O)CCC(=O)N(O)CCCCCNC(=O)CCC(=O)N(O)CCCCCN [Deferoxamine mesylate] shows efficacy at minimum -30%?
# output not fulfilled

# input Would you say Cc1oncc1C(=O)Nc1ccc(C(F)(F)F)cc1 [Leflunomide] shows efficacy at minimum -30%?
# output not fulfilled

# input Would you say CC(C)(C)c1cc(C=C(C#N)C#N)cc(Br)c1O shows efficacy at minimum -30%?
# output not fulfilled

# input Would you say CN(C)C(=O)[C@H](O)[C@H](Cc1ccccc1)NC(=O)c1cc2cc(Cl)ccc2[nH]1 shows efficacy at minimum -30%?
# output fulfilled

# input Would you say O=C(Oc1ccc([N+](=O)[O-])cc1)N1CCC(C(O)(c2ccc3c(c2)OCO3)c2ccc3c(c2)OCO3)CC1 shows efficacy at minimum -30%?
# output fulfilled

# input Would you say CC(C)N(CCC(=O)c1ccc2ccccc2c1)Cc1ccccc1 shows efficacy at minimum -30%?
# output not fulfilled

# input Would you say Cc1c[nH]c(/C=C2\C(=O)Nc3ccccc32)c1CCC(=O)O shows efficacy at minimum -30%?
# output not fulfilled

----------
A collection of compounds and their measured AC50 cell viability
System: HCT116
Test: AC50 cell viability (CellTiter-Glo); higher = less potent
Details: 48 h
Field format: number, assumed µM, no unit text.

[
  {
    "CHEM SMILES": "[O-][S+]1(=O)/N=C(/NC2=CC(=CC=C2)NC(=O)CCl)C3=CC=CC=C13",
    "MEASURED ATTRIBUTE": "AC50 cell viability",
    "VALUE OBSERVED": 26.3
  },
  {
    "CHEM SMILES": "Cc1[nH]c2ccc(F)cc2c1-c1nc2c3cccnc3c3ncccc3c2[nH]1",
    "MEASURED ATTRIBUTE": "AC50 cell viability",
    "VALUE OBSERVED": 0.679
  },
  {
    "CHEM SMILES": "Cc1ccc2nc(NCCN)c3ncc(C)n3c2c1",
    "MEASURED ATTRIBUTE": "AC50 cell viability",
    "VALUE OBSERVED": 2.35
  }
]

Turning now to a further compound:
The value of AC50 cell viability measured for the compound CCN1C(=O)N\2CC3=CC(=CC(=C3[C@@H](C)\C=C2C14CCN(CC4)CC5=CC(=CC(=C5)C)C)OC)OC turned out to be 23.5

----------
Test system: HCT116
Assay: efficacy (fitted maximal change in viability relative to DMSO control); higher = less cytotoxic (negative = loss of viability)
Conditions: 48 h
MEASURED ATTRIBUTE: efficacy (%)
Field format: number, assumed %, no unit text.

[
  {
    "MOLECULE": "O=C(c1ccc(Nc2nccc(-c3cc4ccccc4s3)n2)cc1)N1CCC(N2CCCC2)CC1",
    "efficacy [%]": -106
  },
  {
    "MOLECULE": "CCOC(=O)N1c2ccc(C(F)(F)F)cc2[C@@H](N(Cc2cc(C(F)(F)F)cc(C(F)(F)F)c2)C(=O)OC)C[C@H]1CC",
    "efficacy [%]": -45.4
  },
  {
    "MOLECULE": "C=CC(=O)N1CCC(Oc2cc3c(Nc4ccc(Cl)c(Cl)c4F)ncnc3cc2OC)CC1",
    "efficacy [%]": -106
  },
  {
    "MOLECULE": "COc1cc2c(NC3CCN(C(C)C)CC3)nc(C3CCCCC3)nc2cc1OCCCN1CCCC1",
    "efficacy [%]": -94.9
  },
  {
    "MOLECULE": "COc1ccc(/C=C\\c2cc(OC)c(OC)c(OC)c2)cc1NC(=O)[C@H](N)CO",
    "efficacy [%]": -62.9
  },
  {
    "MOLECULE": "N[C@@H]1C[C@H]1c1ccccc1",
    "efficacy [%]": -9.58
  },
  {
    "MOLECULE": "C[N]1C=C(C2=C1C=CC=C2)\\C3=C(\\C(=O)NC3=O)C4=C5CC(CN)CC[N]5C6=C4C=CC=C6 (stereo not drawn)",
    "efficacy [%]": -33.7
  }
]

Turning now to a further molecule:
The value of efficacy measured for the molecule OC(=O)C/1=C/C(=O)NC(=O)N1 turned out to be -16.5

----------
System: HCT116
Assay: AC50 cell viability (CellTiter-Glo); higher = less potent
Conditions: 48 h
A collection of compounds and their measured AC50 cell viability
Field format: number, assumed µM, no unit text.

# annotated cases, reported AC50 cell viability shown
[
  {
    "COMPOUND": "C[C@@H]1CC[C@@]2(OC1)O[C@H]3C[C@H]4[C@@H]5C/C=C6/C[C@H](CC[C@]6(C)[C@H]5CC[C@]4(C)[C@H]3[C@@H]2C)O[C@@H]7O[C@H](CO)[C@@H](O[C@@H]8O[C@@H](C)[C@H](O)[C@@H](O)[C@H]8O)[C@H](O)[C@H]7O[C@@H]9O[C@@H](C)[C@H](O)[C@@H](O)[C@H]9O",
    "VALUE OBSERVED": 5.25
  },
  {
    "COMPOUND": "COC[C@H]1OC(=O)C2=COC3=C2[C@@]1(C)\\C4=C(\\[C@@H]5CC[C@H](O)[C@@]5(C)C[C@H]4OC(C)=O)C3=O [17-hydroxy Wortmannin]",
    "VALUE OBSERVED": 20.9
  },
  {
    "COMPOUND": "C[S+](=O)([O-])N1CCc2c(-c3cnc(N)nc3)nc(N3CCOCC3)nc21",
    "VALUE OBSERVED": 0.661
  },
  {
    "COMPOUND": "c1ccc2c(CCNc3ccc(Nc4ccncc4)cc3)c[nH]c2c1",
    "VALUE OBSERVED": 5.9
  },
  {
    "COMPOUND": "CC1=C(/C=C/C(C)=C/C=C/C(C)=C/C(=O)Nc2ccc(O)cc2)C(C)(C)CCC1 [Fenretinide]",
    "VALUE OBSERVED": 23.5
  },
  {
    "COMPOUND": "CC[C@@H]1C(=O)N(C)c2cnc(Nc3ccc(C(=O)NC4CCC(N5CCN(CC6CC6)CC5)CC4)cc3OC)nc2N1C(C)C (some centres undefined)",
    "VALUE OBSERVED": 0.0661
  },
  {
    "COMPOUND": "COc1cc(NCc2ccc3nc(N)nc(N)c3c2C)cc(OC)c1OC [Trimetrexate]",
    "VALUE OBSERVED": 1.05
  },
  {
    "COMPOUND": "Cc1cc(C[S+](=O)([O-])c2ccccc2)cc(OCc2ccc(CN3CCC[C@@H]3CO)cc2)c1",
    "VALUE OBSERVED": 16.6
  }
]

The value of AC50 cell viability measured for the compound CN(CCO)C1CCN(c2ccc(Nc3ncc4c5ccnc(F)c5n(C5CCCC5)c4n3)nc2)CC1 turned out to be 1.02

The value of AC50 cell viability measured for the compound COCCn1c2c([n+](Cc3cnccn3)c1C)C(=O)c1ccccc1C2=O [Sepantronium bromide] turned out to be 0.00833

The value of AC50 cell viability measured for the compound Cn1c(=O)n(-c2ccc(C(C)(C)C#N)cc2)c2c3cc(-c4cnc5ccccc5c4)ccc3ncc21 turned out to be 0.135

The value of AC50 cell viability measured for the compound CC1=C(C)C\2=C(S1)[N]3C(=NN=C3[C@H](CC(=O)NC4=CC=C(OCCOCCOCCOCCNC5=CC=CC6=C5C(=O)N(C7CCC(=O)NC7=O)C6=O)C=C4)\N=C2C8=CC=C(Cl)C=C8)C (some centres undefined) turned out to be 0.263

The value of AC50 cell viability measured for the compound COc1ccc(-c2cc3c(C)nc(N)nc3n([C@H]3CC[C@H](OCCO)CC3)c2=O)cn1 turned out to be 0.332

The value of AC50 cell viability measured for the compound COC1=CC2=C(C=C1OC)[C@H]3[C@@H](CO2)OC4=C(C=CC5=C4\C=C/C(C)(C)O5)C3=O turned out to be 5.25

From: the supplement of paper PMC10290057
